Measured ka accompanies every entry in the list below.
targetOrSystem: T1, human EphA4 (Homo sapiens, UniProt P54764)
T1 construct: made in house; not restated for the human SEAP-His protein
T1 sequence (P54764 20-547): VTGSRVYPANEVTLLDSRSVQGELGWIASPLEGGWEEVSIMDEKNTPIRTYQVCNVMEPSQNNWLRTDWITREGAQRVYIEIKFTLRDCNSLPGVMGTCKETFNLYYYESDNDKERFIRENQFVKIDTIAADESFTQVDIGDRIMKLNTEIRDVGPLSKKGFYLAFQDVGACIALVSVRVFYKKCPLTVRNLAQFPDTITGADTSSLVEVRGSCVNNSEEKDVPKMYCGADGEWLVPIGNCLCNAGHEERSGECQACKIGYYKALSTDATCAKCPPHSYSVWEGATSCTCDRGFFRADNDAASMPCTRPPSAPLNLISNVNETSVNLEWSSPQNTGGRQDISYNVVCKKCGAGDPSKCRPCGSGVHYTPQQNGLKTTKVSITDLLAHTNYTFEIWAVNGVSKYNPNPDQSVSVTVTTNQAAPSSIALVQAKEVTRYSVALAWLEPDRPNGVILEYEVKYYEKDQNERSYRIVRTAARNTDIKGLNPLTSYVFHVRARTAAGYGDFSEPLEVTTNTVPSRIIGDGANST
assayOverview: Affinity of humanized antibodies by SPR (Biacore T200)
Format: binding
measurementConditions: human EphA4 extracellular region-SEAP-His; 1:1 binding model
Description: The binding affinity of each anti-EphA4 monoclonal humanized antibody obtained in Example 16 for human EphA4 was determined by surface plasmon resonance (SPR) using Biacore T200 (GE Healthcare). First, for the assay of antibody A, a rat anti-mouse IgG1 antibody produced with a conventional method by immunizing rat with mouse IgG1 antibody was immobilized on sensor chip CM5. […]
valueType: ka

- molecule: "93 (antibody, V domains shown, constant regions without entry; synthetic humanized antibody light chain variable region sequence; synthetic humanized antibody heavy chain variable region sequence) VL: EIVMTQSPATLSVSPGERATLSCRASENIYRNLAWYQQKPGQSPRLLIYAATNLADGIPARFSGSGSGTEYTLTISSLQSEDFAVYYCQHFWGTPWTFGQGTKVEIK VH: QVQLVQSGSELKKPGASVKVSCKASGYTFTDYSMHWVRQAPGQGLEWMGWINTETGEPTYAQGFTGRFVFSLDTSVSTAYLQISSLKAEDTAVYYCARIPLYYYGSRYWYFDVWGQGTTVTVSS"
  valueType: "ka"
  result: "310000 M⁻¹ s⁻¹"
- molecule: "95 (antibody, V domains shown, constant regions without entry; synthetic humanized antibody light chain variable region sequence; synthetic humanized antibody heavy chain variable region sequence) VL: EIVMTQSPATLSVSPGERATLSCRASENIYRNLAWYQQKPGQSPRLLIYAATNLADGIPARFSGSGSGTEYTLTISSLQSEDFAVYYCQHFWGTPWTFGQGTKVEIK VH: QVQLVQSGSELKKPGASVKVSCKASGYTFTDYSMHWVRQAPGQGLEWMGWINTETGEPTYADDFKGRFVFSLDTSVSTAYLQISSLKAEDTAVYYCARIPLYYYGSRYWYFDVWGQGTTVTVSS"
  valueType: "ka"
  result: "300000 M⁻¹ s⁻¹"
- molecule: "94 (antibody, V domains shown, constant regions without entry; synthetic humanized antibody light chain variable region sequence; synthetic humanized antibody heavy chain variable region sequence) VL: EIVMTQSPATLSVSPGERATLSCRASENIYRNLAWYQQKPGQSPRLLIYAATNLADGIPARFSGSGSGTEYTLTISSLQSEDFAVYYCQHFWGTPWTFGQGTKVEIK VH: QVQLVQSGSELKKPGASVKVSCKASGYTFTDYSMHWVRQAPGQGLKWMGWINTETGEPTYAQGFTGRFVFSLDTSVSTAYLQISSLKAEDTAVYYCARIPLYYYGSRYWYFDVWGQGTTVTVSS"
  valueType: "ka"
  result: "260000 M⁻¹ s⁻¹"
- molecule: "71 (antibody, V domains shown, synthetic humanized antibody heavy chain variable region sequence; synthetic humanized antibody light chain variable region sequence) VH: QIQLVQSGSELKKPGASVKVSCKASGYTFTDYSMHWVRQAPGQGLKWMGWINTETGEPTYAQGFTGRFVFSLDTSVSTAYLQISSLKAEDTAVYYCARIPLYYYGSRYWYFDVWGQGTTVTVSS VL: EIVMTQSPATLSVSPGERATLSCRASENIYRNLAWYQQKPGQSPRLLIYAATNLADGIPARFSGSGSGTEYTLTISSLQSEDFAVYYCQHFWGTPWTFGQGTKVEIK"
  valueType: "ka"
  result: "280000 M⁻¹ s⁻¹"
